biological target: T1, recombinant human CFD mutant 1 (R157A, R207A), His-tagged (human, UniProt P00746 26-253); assay: SPR MX96
T1 construct: positions are linear positions in the mature protein; also called rhCFD-mut1-His; Mut1
T1 sequence (P00746 26-253 R182A/R232A limits assumed): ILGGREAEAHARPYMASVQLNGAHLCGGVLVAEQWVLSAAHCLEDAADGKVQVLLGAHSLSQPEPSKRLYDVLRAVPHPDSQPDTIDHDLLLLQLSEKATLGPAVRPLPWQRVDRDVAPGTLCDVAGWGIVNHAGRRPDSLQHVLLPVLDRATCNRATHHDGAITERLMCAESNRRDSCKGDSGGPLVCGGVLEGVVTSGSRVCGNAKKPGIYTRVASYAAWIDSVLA
pKd: −log10 of the molar value.

| BINDER | pKd |
| --- | --- |
| KCD135 (antibody, V domains shown) VH: EVQLQQSGPELVKPGASVRMSCKASGYIFTDYSIHWVKQSHGKSLEWIGYINPNNGGTSYNQKFKGKATLTVNKSSTTAYMELRSLTSEDSAVYFCARDTTIVGDYWGQGTTLTVSS VL: DIVMTQSQKFMSTSVGDRVSVTCKASQHVGTNVVWYQQKPGQSPKALIYSASYRYSGVPDRFSGSGSGTDFTLTISNVQSEDLAEYFCQQFNSYPLTFGGGTKLEIK | 7.82 |
| KCD104 (antibody, V domains shown, chimeric) VH: QVQLQQPGAELVRPGTSVKLSCKASGYTFTSYWMHWVKQRPGQGLEWIGVIDPSDSYTYYNQKFKGKATLTVDTSSSTAYMQLSSLTSEDSAVYYCARNGYDGAMDYWGQGTSVTVSS VL: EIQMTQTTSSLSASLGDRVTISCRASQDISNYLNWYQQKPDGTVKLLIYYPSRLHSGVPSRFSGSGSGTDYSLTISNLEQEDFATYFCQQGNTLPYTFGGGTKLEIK | 9.09 |
| KCD205 (antibody, V domains shown) VH: EVQLQQSGAELVRPGSSVKMSCKTSGNTFTSHGINWVKQRPGQGLEWIGYIYIGNGYNEYNEKFKGKATLTSDTSSSTAYMQLSSLTSEDSAIYFCVRKAYGNYGFDDWGQGTTLTVSS VL: DIQMTQSPSSLSASLGERVSLTCRASQEISGYLSWLQQKPDGTIKRLIYAASTLDSGVPKRFSGSSSGSDYSLTISSLESDDFADYYCLQYASYPFTFGSGTKLEIK | 8.74 |
| KCD224 (antibody, V domains shown, chimeric) VH: QVQLKESGPGLVAPSQSLSITCTVSGFSLTSYGVDWIRQSPGKGLEWLGVIWGVGSTNYNSALKSRLSISKDNSKSQVFLKMNSLQTDDTAMYYCARSYDGSYWYFDVWGTGTTVTVSS VL: DIQMTQTTSSLSASLGDRVTISCRASQVISNYLNWYQQKPDGTVKLLIYYTSRLHSGVPSRFSGSGSGTDYSLTISNLEPEDIATYYCQQYSKLPYTFGSGTKLEIK | 8.96 |
| KCD057 (antibody, V domains shown) VH: EVKLVESGGGLVQPGGSLKLSCAASGFTFSNYIMSWVRQTPEKRLEWVAYITNGGGATYYPDTVKGQFTISRDNAKNTLYLQMSSLKSEDTAIYYCARHDFYALDFWGQGTSVTVSS VL: DIQMTQSPSSLSASLGGKVTITCKASQDINKYIAWYQHKPGKGPRLLIHYTSTLQPGIPSRFSGSGSGRDYSFSISNLEPEDIATYYCLKYDNLLYTFGGGTKLEIK | 8.60 |
